# System name: type B (CCK-B) gastrin or cholecystokinin receptors (Oryctolagus cuniculus)
# Construct: rabbit gastric mucous-membrane cells were prepared by conventional techniques; endogenous in cells; host or cells: dispersed rabbit gastric mucous-membrane cells (collagenase and pronase)
# Sequence (P46627 1-452): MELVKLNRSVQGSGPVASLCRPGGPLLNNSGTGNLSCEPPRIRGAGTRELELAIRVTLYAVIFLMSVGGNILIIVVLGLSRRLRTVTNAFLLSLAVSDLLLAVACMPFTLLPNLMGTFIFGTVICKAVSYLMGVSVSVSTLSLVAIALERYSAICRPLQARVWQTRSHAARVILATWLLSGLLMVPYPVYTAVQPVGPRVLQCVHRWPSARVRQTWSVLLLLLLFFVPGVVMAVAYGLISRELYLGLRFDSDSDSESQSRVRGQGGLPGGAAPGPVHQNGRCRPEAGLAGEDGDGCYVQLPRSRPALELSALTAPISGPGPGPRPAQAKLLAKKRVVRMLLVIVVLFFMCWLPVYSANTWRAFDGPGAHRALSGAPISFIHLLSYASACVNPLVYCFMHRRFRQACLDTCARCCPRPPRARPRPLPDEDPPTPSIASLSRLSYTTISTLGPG
# Procedure text: Inhibition of the increase in cytosol calcium induced by gastrin in rabbit gastric mucous-membrane cells
# Type: cell-based
# Condition: 5×10-8 gastrin
Readout label: IC50, inhibition of gastrin-induced increase in cytosol calcium (µM)

Compound | Numeric value
Cc1cc(Cl)c(NC(=O)C[C@H](CC(=O)O)c2cccc3ccccc23)c(C(=O)N2CCC3(CCCC3)CC2)c1 [Compound 2] | 0.0035

A = Cc1cc(C)c(NC(=O)C[C@H](CC(=O)O)c2cccc3ccccc23)c(C(=O)N2CCC3(CCCC3)CC2)c1 [Compound 1]
B = Cc1cc(Cl)c(NC(=O)C[C@@H](CC(=O)O)c2cccc3ccccc23)c(C(=O)N2CCC3(CCCC3)CC2)c1 [Compound 5]
Looking only at measured IC50, inhibition of gastrin-induced increase in cytosol calcium, which entry is lower, A or B ? Returns: label corresponding to the selected item.
A
(A: 0.0043 µM, B: 0.082 µM)
